system_name: rat NR1/NR2B receptor (Rattus norvegicus (Rat), UniProt P35439+Q00960)
Sequence (Q00960 27-1482, other chains not shown): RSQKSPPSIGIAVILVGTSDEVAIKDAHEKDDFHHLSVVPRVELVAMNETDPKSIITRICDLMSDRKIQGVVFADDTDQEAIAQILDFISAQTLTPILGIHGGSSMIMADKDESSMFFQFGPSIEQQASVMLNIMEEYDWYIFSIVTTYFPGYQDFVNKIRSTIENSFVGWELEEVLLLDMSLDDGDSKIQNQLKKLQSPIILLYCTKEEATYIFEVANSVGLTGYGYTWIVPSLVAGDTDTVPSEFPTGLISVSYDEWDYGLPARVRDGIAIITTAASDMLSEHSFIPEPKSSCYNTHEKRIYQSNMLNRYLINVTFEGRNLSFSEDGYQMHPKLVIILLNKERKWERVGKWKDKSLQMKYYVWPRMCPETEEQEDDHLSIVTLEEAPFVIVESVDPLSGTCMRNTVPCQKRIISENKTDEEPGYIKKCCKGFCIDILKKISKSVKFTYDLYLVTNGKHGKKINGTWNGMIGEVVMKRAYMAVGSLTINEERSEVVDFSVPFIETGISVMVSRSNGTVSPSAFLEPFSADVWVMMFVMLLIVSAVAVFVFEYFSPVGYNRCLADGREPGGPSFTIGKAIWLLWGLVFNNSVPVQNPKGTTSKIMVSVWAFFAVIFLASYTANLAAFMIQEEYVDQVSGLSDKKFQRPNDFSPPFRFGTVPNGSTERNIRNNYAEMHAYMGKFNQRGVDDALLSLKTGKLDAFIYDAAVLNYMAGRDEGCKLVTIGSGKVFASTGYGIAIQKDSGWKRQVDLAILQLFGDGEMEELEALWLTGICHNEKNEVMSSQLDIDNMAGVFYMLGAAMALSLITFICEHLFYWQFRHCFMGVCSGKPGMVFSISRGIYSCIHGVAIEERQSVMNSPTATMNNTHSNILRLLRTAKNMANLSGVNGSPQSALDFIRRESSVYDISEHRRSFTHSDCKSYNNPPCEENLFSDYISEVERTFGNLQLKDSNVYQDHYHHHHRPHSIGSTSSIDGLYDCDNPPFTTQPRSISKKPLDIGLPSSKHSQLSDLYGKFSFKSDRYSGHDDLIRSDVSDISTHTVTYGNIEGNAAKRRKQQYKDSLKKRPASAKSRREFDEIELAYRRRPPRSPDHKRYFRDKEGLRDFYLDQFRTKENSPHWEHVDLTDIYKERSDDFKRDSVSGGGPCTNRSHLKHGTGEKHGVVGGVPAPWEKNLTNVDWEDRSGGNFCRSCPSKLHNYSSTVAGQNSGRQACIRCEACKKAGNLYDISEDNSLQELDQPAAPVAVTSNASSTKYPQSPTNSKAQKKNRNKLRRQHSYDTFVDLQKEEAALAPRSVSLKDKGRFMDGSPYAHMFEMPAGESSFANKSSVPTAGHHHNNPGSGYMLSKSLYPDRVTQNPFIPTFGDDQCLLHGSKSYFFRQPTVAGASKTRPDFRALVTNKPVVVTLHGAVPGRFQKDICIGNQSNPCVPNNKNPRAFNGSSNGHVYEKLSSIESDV
assay_procedure: NR2B binding assay: inhibition of specific [3H]-Ifenprodil binding to the rat NR1/NR2B receptor
applied_conditions: [3H]-Ifenprodil binding, rat brain membranes
Counter-ions that a name gives are not always drawn.
Please go through the items and note down their IC50.
API: value field is a number in nM; no unit string.

Can you share its IC50? I mean this compound: Cc1cc(Cn2cc(-c3ccc(Cl)cc3)cn2)n(C)n1 [Example 74]
6060

Record request: IC50 value, item Cn1ccc(Cn2cc(-c3ccc(Cl)c(Cl)c3)cn2)n1 [Example 63]
612

Entry c1cc(-c2cnn(Cc3cc[nH]n3)c2)cc(C2CC2)c1 [Example 69, Succinate] : reported IC50 = ?
831

# lookup: IC50 of Cn1ccc(Cn2cc(-c3ccc(Cl)cc3)cn2)n1 [Example 75]
3040

Can you share its IC50? I mean this compound: Cn1nccc1-n1cc(-c2ccc(Cl)c(Cl)c2)cn1 [Example 100]
3170

Using the record for Cn1ccc(Cn2cc(-c3cccc(OC(F)(F)F)c3)cn2)n1 [Example 23, Succinate] , report its IC50.
1590

So what's the measured IC50 for this one? Cc1n[nH]c(C)c1Cn1cc(-c2ccc(Cl)c(OC(F)F)c2)cn1 [Example 88]
152

Can you look up the measured IC50 of Cc1[nH]ncc1Cn1cc(-c2ccc(Cl)c(OC(F)F)c2)cn1 [Example 16] for me?
41.1

Value lookup for IC50; key = CC(F)(F)c1cccc(-c2cnn(Cc3cc[nH]n3)c2)c1 [Example 93, Maleate]
25.2

* * *

system_name: rat NR1/NR2B receptor (Rattus norvegicus (Rat), UniProt P35439+Q00960)
assay_procedure: NR2B binding assay: inhibition of specific [3H]-Ifenprodil binding to the rat NR1/NR2B receptor
applied_conditions: [3H]-Ifenprodil binding, rat brain membranes
Lab note: compare IC50 with 0.1 µM, writing label 1 if less and label 0 if equal or more.

Decide: IC50 of Fc1ccc(-c2cnn(Cc3cc[nH]n3)c2)cc1C(F)F [Example 35] strictly below 0.1 µM?
label 1

Given CCn1cncc1Cn1cc(-c2ccc(Cl)cc2)cn1 [Example 98] , is recorded IC50 strictly lower than 0.1 µM?
label 0

Dear colleague, could you confirm whether IC50 of Cc1cc(Cn2cc(-c3ccc(Cl)c(OC(F)F)c3)cn2)[nH]n1 [Example 13] falls below 0.1 µM? Thanks.
label 1

Is IC50 of Fc1ccc(-c2cnn(CCc3cn[nH]c3)c2)cc1C(F)F [Example 37] strictly below 0.1 µM?
label 0

Input Cn1ccc(Cn2cc(-c3ccc(Cl)cc3Cl)cn2)n1 [Example 66, Succinate] ; condition: IC50 strictly below 0.1 µM. Does it hold?
label 0

Please state whether IC50 is below 0.1 µM for Cc1n[nH]c(C)c1CCn1cc(-c2ccc(Cl)cc2)cn1 [Example 73]
label 0

Answer whether the molecule CCc1cc(Cn2cc(-c3ccc(Cl)c(OC(F)F)c3)cn2)n[nH]1 [Example 14] has IC50 strictly less than 0.1 µM
label 1

Just wondering, is IC50 of CCCc1cc(Cn2cc(-c3ccc(F)c(C(F)F)c3)cn2)n[nH]1 [Example 41] below 0.1 µM?
label 0

Given Cc1cc(-c2cnn(Cc3cc[nH]n3)c2)ccc1F [Example 56] , is recorded IC50 strictly lower than 0.1 µM?
label 1

Threshold test, IC50 < 0.1 µM: Cc1cc(Cn2cc(-c3cccc(C(F)(F)F)c3)cn2)n(C)n1 [Example 48]
label 0
